Let's look at some variants and their measured Tm.
B1: Tryptophan synthase alpha chain, P0A877 (parent)
chain: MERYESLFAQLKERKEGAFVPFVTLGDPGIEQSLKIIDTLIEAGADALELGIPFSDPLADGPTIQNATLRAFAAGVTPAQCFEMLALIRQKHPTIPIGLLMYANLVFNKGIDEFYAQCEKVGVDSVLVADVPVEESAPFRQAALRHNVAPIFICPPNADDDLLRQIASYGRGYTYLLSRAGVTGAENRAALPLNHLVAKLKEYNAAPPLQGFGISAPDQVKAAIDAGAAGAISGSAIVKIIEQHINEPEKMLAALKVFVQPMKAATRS

variants of: B1; details: Escherichia coli (strain K12); pH 9; Thermal; DSC; Sodium tetraborate 1 mM; reversible: yes; structure 1WQ5; whole UniProt chain shown
Just the number please, in °C, no unit attached.

[in] Query: Tm; subject: P132A
[out] 51.5

[in] Query: Tm; subject: P132G
[out] 51.8

[in] Query: Tm; subject: P57A
[out] 54

[in] Query: Tm; subject: P207A
[out] 47.4

Continuing:
[in] Query: Tm; subject: P96A
[out] 47.8
